Tested on: Caco-2 cell monolayer
Protocol: Cellular accumulation (CA) of flavonoids in Caco-2 cell monolayer
Measurement context: accumulated in cell monolayer after transport basolateral to apical, 40 μM, 1 h, normalized to cellular protein, mean ± SD, n = 3
Marks after values point to notes of the source that are not given here.
Attribute measured: CA B to A

INSERT INTO results (compound, attribute_measured, reported_value) VALUES
  ('O=c1c(O)c(-c2ccccc2)oc2cc(O)cc(O)c12', 'CA B to A', '9.286 ± 0.859 ^b μmol/g'),
  ('COc1cc2c(=O)c(-c3ccc(O)cc3)coc2cc1O', 'CA B to A', '0.158 ± 0.021 µmol/g'),
  ('O=c1c(-c2ccc(O)cc2)coc2cc(O)ccc12', 'CA B to A', '1.236 ± 0.117 ^b μmol/g'),
  ('O=C1C[C@@H](c2ccc(O)cc2)Oc2cc(O)ccc21', 'CA B to A', '1.234 ± 0.249 ^a μmol/g'),
  ('O=c1c(O)c(-c2ccc(O)cc2O)oc2cc(O)cc(O)c12', 'CA B to A', '0.060 ± 0.011 µmol/g'),
  ('O=c1c(O)c(-c2ccc(O)cc2)oc2cc(O)cc(O)c12', 'CA B to A', '11.887 ± 1.247 ^a μmol/g'),
  ('O=c1cc(-c2ccccc2)oc2cc(O)c(O)c(O)c12', 'CA B to A', '3.272 ± 0.445 ^a μmol/g'),
  ('O=c1cc(-c2ccccc2)oc2ccccc12', 'CA B to A', '3.183 ± 0.504 ^a μmol/g'),
  ('O=C(/C=C/c1ccc(O)cc1)c1ccc(O)cc1O', 'CA B to A', '8.804 ± 1.576 ^a μmol/g'),
  ('C[C@@H]1O[C@@H](O[C@H]2[C@H](Oc3cc(O)c4c(c3)O[C@H](c3ccc(O)cc3)CC4=O)O[C@H](CO)[C@@H](O)[C@@H]2O)[C@H](O)[C@H](O)[C@H]1O', 'CA B to A', '0.068 ± 0.011 µmol/g'),
  ('O=c1c(-c2ccc(O)cc2)coc2cc(O)cc(O)c12', 'CA B to A', '2.777 ± 0.220 ^b μmol/g'),
  ('O=c1cc(-c2ccc(O)c(O)c2)oc2cc(O)cc(O)c12', 'CA B to A', '8.639 ± 1.275 ^b μmol/g'),
  ('COc1ccc(-c2coc3cc(O)cc(O)c3c2=O)cc1', 'CA B to A', '14.087 ± 1.287 ^b μmol/g'),
  ('COc1ccc(CCC(=O)c2c(O)cc(O[C@@H]3O[C@H](CO)[C@@H](O)[C@H](O)[C@H]3O[C@@H]3O[C@@H](C)[C@H](O)[C@@H](O)[C@H]3O)cc2O)cc1O [Compound 30, Neohesperidin dihydrochalcone]', 'CA B to A', '0.251 ± 0.012 µmol/g'),
  ('O=c1cc(-c2ccc(O)cc2)oc2c([C@@H]3OC[C@H](O)[C@H](O)[C@H]3O)c(O)c([C@@H]3O[C@H](CO)[C@@H](O)[C@H](O)[C@H]3O)c(O)c12 [Compound 8, Schaftoside]', 'CA B to A', '0.044 ± 0.007 µmol/g');

* * *

System: Caco-2 cell monolayer
Protocol: Cellular accumulation (CA) of flavonoids in Caco-2 cell monolayer
Measurement context: accumulated in cell monolayer after transport basolateral to apical, 40 μM, 1 h, normalized to cellular protein, mean ± SD, n = 3
Listing of entries alongside the reported CA B to A.
Attribute measured: CA B to A (µmol/g)

INSERT INTO assay_data (molecule, attribute_measured, units_of_measure, reported_value) VALUES
  ('COc1ccc(-c2cc(=O)c3c(OC)c(OC)c(OC)c(OC)c3o2)cc1 [Compound 2, Tangertin]', 'CA B to A', 'µmol/g', 2.423),
  ('COc1cc(-c2oc3cc(O)cc(O)c3c(=O)c2O)ccc1O [Compound 15, Isorhamnetin]', 'CA B to A', 'µmol/g', 0.076),
  ('COc1ccc([C@@H]2CC(=O)c3c(O)cc(O)cc3O2)cc1O [Compound 18, Hesperetin]', 'CA B to A', 'µmol/g', 1.644),
  ('COc1ccc(-c2coc3cc(O)ccc3c2=O)cc1 [Compound 23, Formononetin]', 'CA B to A', 'µmol/g', 4.842),
  ('COc1ccc(-c2oc3cc(O)cc(O)c3c(=O)c2O)cc1 [Compound 13, Kaempferide]', 'CA B to A', 'µmol/g', 0.496),
  ('COc1c(O)cc(O)c2c(=O)cc(-c3ccccc3)oc12 [Compound 3, Wogonin]', 'CA B to A', 'µmol/g', 1.586);

# credit: paper PMC5748751
